Test system: Candida albicans
Experiment: Extended time kill study, Example 34 (0 to 24 h)
Type: cell-based
Details: 1 × MIC, 2 h
Structures can show the parent of a compound that is named as a salt.
Readout Name: Viable counts in Log10 CFU/mL (Log10 CFU/mL)
Dear colleague, please return just the value in Log10 CFU/mL, with no unit written.

Report Viable counts in Log10 CFU/mL on Candida albicans for this entry: CCCCCCCCCCCCOC(=O)C(C)NC.Cl (centres unmarked) [Nex-59] 5.24

Report Viable counts in Log10 CFU/mL on Candida albicans for this entry: CCCCCCCCCCCCOC(=O)C(C)NCCO.Cl (centres unmarked) [Nex-61] 5.37

Report Viable counts in Log10 CFU/mL on Candida albicans for this entry: CCCCCCCCCCCCOC(=O)C(C)N(C)C (centres unmarked) [Nex-05, hydrochloride] 5.60

Report Viable counts in Log10 CFU/mL on Candida albicans for this entry: CCCCCCCCCCCCOC(=O)C(C)NC(C)C.Cl (centres unmarked) [Nex-60] 5.50

Report Viable counts in Log10 CFU/mL on Candida albicans for this entry: CCCCCCCCCCCCOC(=O)C(C)NCCN(CC)CC.Cl (centres unmarked) [Nex-62] 5.78
